- System: HOP-92 NSCLC
- assay notes: NCI tumour cell line growth inhibition, 48 h
metric name: TGI

INSERT INTO measurements (compound, test_value) VALUES
  ('C(=N\OCc1ccccc1)/c1ncccc1C1OCCO1', '> 100 µM'),
  ('CN1c2ccccc2N(C)C2C1N(C)c1ccccc1N2C (centres undefined)', '52.4 µM'),
  ('COc1c(C(=O)O)oc2c(OC)cccc12', '> 100 µM'),
  ('CC(=O)OCC1OC(n2cc(F)c(=O)[nH]c2=O)C(N)C(OC(C)=O)C1OC(C)=O (centres undefined)', '> 100 µM');

---

- Tested on: SK-MEL-5 melanoma
- assay notes: NCI tumour cell line growth inhibition, 48 h
Outcome: 1 for TGI of at least 30 µM; -1 for anything lower.

INSERT INTO assay_data (compound, class) VALUES
  ('COc1ccc2c(c1OC)C1=C(C2=O)c2cc3c(cc2CCN1)OCO3', 1),
  ('CCCCCCCCCCN(CCCCCCCCCC)CC(=O)c1ccc2cc(Br)c3ccccc3c2c1', -1),
  ('Cc1cc(-c2[nH]c(C(=O)O)cc2I)on1', 1),
  ('O=c1c(SSc2coc3cc(F)ccc3c2=O)coc2cc(F)ccc12', 1),
  ('CC(C)SC(C)(NC(=O)C1C(C)(C)CCC1(C)C)C(=O)O (stereo not given)', 1),
  ('O=C1CSc2nc3ccccc3n2/C=N\N1', 1),
  ('Cc1ccc(S(=O)(=O)NC(=O)NC23CC4CC(CC(F)(C4)C2)C3)cc1', 1),
  ('COc1ccc(O[C@H](COCc2ccccc2)C[C@@H]2COC(C)(C)O2)cc1', 1),
  ('CCOC(=O)C(=Cc1ccccc1[N+](=O)[O-])C(=O)OCC', -1);

---

- Test system: HCT-116 colon
- assay notes: NCI tumour cell line growth inhibition, 48 h
metric name: TGI (µM)

INSERT INTO results (molecule, measured_on, readout_relation, test_value) VALUES
  ('FC(F)(F)c1ccccc1N1CCN(c2nc(-c3cccs3)nc3ccc(Br)cc23)CC1', 'HCT-116 colon', '>', 100),
  ('COc1cc(OC)c2c(O)c3c(cc2c1)CC(C)(C)CC3=O', 'HCT-116 colon', '>', 100),
  ('COc1cc(/C=C2\CC3C4CC=C5C[C@@H](OC(C)=O)CC[C@]5(C)C4CC[C@]3(C)C2=O)ccc1OCCCn1ccnc1 (some centres not stated)', 'HCT-116 colon', '=', 29.6),
  ('COC(=O)c1c2c(c(C)[n+]([O-])c1C)C(=O)C=C(NCc1ccc(F)c(F)c1)C2=O', 'HCT-116 colon', '=', 0.902),
  ('Cc1c2c(cc3c1[nH]c1ccccc13)C=NCC2', 'HCT-116 colon', '=', 14.6),
  ('C[C@]1(CO)[C@H]2CC[C@@]34C=C[C@@](CO)(CC[C@H]3[C@]2(C)CC[C@H]1O)C4', 'HCT-116 colon', '>', 100),
  ('COC1CC2C=C(C)/C=C/C=C/C(=O)NC(c3ccccc3)C/C=C/CCC(O)CC(=O)C2=C1O (configuration not stated)', 'HCT-116 colon', '=', 1.22);

---

- Test system: IGROV1 ovarian
- assay notes: NCI tumour cell line growth inhibition, 48 h
# TGI annotations
metric name: TGI

INSERT INTO assay_data (molecule, test_value) VALUES
  ('COc1ccc(C(N)=O)cc1N=NN(C)C', '> 100 µM'),
  ('c1ccc(C2=Nc3nc4ccccc4n3C(c3ccccc3)C2)cc1 (configuration not stated)', '> 100 µM'),
  ('Cn1c(=O)c(Oc2ccccc2F)cc2cnc(NC3CCOCC3)nc21', '> 25 µM'),
  ('Nc1nc2c(c(=O)[nH]1)N(C=O)C(CNc1ccc(C(=O)N[C@@H](CCC(=O)O)C(=O)O)cc1)CN2 (some centres not stated)', '> 125 µM'),
  ('COc1cccc(-c2ccc3c4c2O[C@H]2c5[nH]c6ccccc6c5C[C@@]5(O)[C@@H](C3)N(CC3CC3)CC[C@]425)c1', '3.04 µM'),
  ('CCCCc1c(C(=O)OC(C)(C)C)cc(C#Cc2cc(C(=O)OC(C)(C)C)c(CCCC)c(C(=O)OC(C)(C)C)c2)cc1C(=O)OC(C)(C)C', '> 100 µM'),
  ('CCCCCCCC(=O)OC(CBr)COC(=O)C(C)(C)C (configuration not stated)', '> 100 µM'),
  ('CC(=O)O[C@H]1CC[C@@]2(C)C(=CC[C@H]3[C@@H]4C/C(=C\c5cccc(OCCN6CCOCC6)c5)[C@H](OC(C)=O)[C@@]4(C)CC[C@@H]32)C1', '80.2 µM'),
  ('COC(=O)c1c2c(c(C)[n+]([O-])c1C)C(=O)C=C(NCc1ccc(F)c(F)c1)C2=O', '1.68 µM'),
  ('C=CCOCn1cnc2c(N)ncnc21', '> 100 µM'),
  ('N=C(N=C(N)N)N1CCN(c2ccncc2)CC1', '> 1000 µM'),
  ('CCOc1ccc(/C=C(\Cl)c2ccc(OC)c(OC)c2)cc1', '> 100 µM'),
  ('COc1ccc(-c2cc(/C=C3\C(=O)Nc4ccc(Cl)cc43)[nH]n2)cc1', '17.9 µM'),
  ('CCOC(=O)N1CCN(c2ccc3c(C)cc(C)nc3n2)CC1', '> 100 µM'),
  ('CC(C)C(C/C=C1\CC(CO)(COC(=O)c2ccccc2)OC1=O)C(C)C (configuration not stated)', '37.2 µM'),
  ('Cc1nc2sc(C(=O)Nc3cccc4ccccc34)c(N)c2cc1C(=O)c1ccccc1', '> 50 µM'),
  ('CC(=O)N1CCc2c([nH]c3ccc(Br)cc23)C1c1ccccc1 (configuration not stated)', '> 10 µM'),
  ('Cc1ccc(OCC2OC(n3cnc4nc(Cl)nc(Cl)c43)CC2Oc2ccc(C)cc2)cc1 (configuration not stated)', '19.7 µM'),
  ('O=c1/c(=C\c2ccccc2)sc2n1C(c1ccccc1)C1(O)CCCCC1N=2 (configuration not stated)', '> 100 µM'),
  ('C=C1C(=O)OC2(C)C3CCC(C3)C12 (configuration not stated)', '> 100 µM'),
  ('CC1(C)N=C(C(N)=O)c2ncn(CCO)c2N1', '> 100 µM'),
  ('CN1NC2(CCCCC2)ON=C1c1ccccc1', '> 100 µM'),
  ('Nc1nnc2cc(Cl)ccc2n1', '> 100 µM'),
  ('CCCCCC(=O)N[C@@H](c1ccccc1)C(O)C(=O)OC1C[C@@]2(O)C(OC(=O)c3ccccc3)C3[C@](C)(C(=O)[C@H](O)C(=C1C)C2(C)C)C(OC1OCC(O)C(O)C1O)C[C@H]1OC[C@@]31OC(C)=O (some centres not stated)', '> 100 µM'),
  ('NC(=O)N/N=C/C(/C=N/NC(N)=O)[N+](=O)[O-]', '> 100 µM'),
  ('O=C1C[C@@H]2C(COC(=O)c3ccccc3)N(OCc3ccccc3)C[C@@H]2O1 (some centres not stated)', '> 100 µM'),
  ('O=c1cc2ccccc2nn1Cc1ccccc1Cl', '> 100 µM'),
  ('CC(C)c1ccc(/C(C(=O)O)=C(\O)C(=O)O)cc1', '> 100 µM'),
  ('C=C1C[C@@H](O)C[C@@]2(C)C[C@@H]3OC(=O)C(=C)[C@@H]3C[C@H]12', '28.8 µM'),
  ('CNc1ccc(-c2nc3cc(C)ccc3o2)cc1', '> 100 µM'),
  ('COc1cccc(NC(=O)CC(=O)N2N=C(N(CCC#N)c3ccccc3C)CC2c2ccccc2)c1 (configuration not stated)', '> 100 µM'),
  ('O=[N+]([O-])c1ccc(N/N=C/c2c(O)ccc3ccccc23)nc1', '> 100 µM');
